Tested On: UniProtKB P25774
Protocol Description: Cathepsin S inhibition, fluorogenic peptide substrate kinetic assay
Type: biochemical
Conditions: Table II; Cathepsin S inhibition constant, pH5.5; read-out: Ki Cat. S
Kindly supply the reported Ki values for the records listed here.

Ki measured on COc1cccc(C(=O)N[C@@H](Cc2ccc(F)cc2)C(=O)N[C@@H](COCc2ccccc2)CN2CCc3cc(F)ccc32)c1 = < 100 nM

Ki recorded for this molecule, C[C@@H](CNc1ccc(S(C)(=O)=O)cc1)NC(=O)[C@H](CC1CCCCC1)NC(=O)c1ccc(-c2ccc(F)cc2)o1 , is < 100 nM

Record COc1cccc(C(=O)N[C@@H](CC(C)(C)C)C(=O)N[C@@H](CO)CN2CCc3cc(F)ccc32)c1 , field Ki: < 100 nM

The measured Ki associated with C[C@@H](CNc1ccc(OC(F)(F)F)cc1)NC(=O)[C@H](CC1CCCCC1)NS(=O)(=O)c1cccc(OC(F)(F)F)c1 reads < 100 nM

# Ki of C[C@@H](CNc1ccc(OC(F)(F)F)cc1)NC(=O)[C@H](CC1CCCCC1)NC(=O)C1CCOC1 (mixture of isomers) = < 100 nM

So, O=C(NCCN1CCc2cc(F)ccc21)[C@H](CC1CCCCC1)NS(=O)(=O)c1ccc(OC(F)F)cc1 ? Its Ki was < 1000 nM

###

Tested On: Cathepsin S (Homo sapiens, UniProt P25774)
Sequence (P25774 115-331, species assumed): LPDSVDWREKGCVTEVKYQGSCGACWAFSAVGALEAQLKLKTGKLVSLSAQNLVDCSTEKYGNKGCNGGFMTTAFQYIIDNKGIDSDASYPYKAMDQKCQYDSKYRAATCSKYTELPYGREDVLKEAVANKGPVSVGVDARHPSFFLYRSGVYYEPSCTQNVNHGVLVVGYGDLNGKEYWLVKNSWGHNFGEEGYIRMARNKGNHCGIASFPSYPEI
Protocol Description: Cathepsin S inhibition, fluorogenic peptide substrate kinetic assay
Type: biochemical
Conditions: Table II; Cathepsin S inhibition constant, pH5.5; read-out: Ki Cat. S
From the text: “Inhibition constant”, Ki, is the dissociation constant of the enzyme-inhibitor complex, or the reciprocal of the binding affinity of the inhibitor to the enzyme. […] The inhibited rates are then fit by nonlinear regression to the following equation: [formula] […] The inhibition constant, Ki, can be determined from the apparent inhibition constant, Ki^app, for competitive inhibitors by using the following relationship: [formula] […]
Measured Quantity: Ki

Field Ki (system: Cathepsin S (Homo sapiens, UniProt P25774)) for entry Cc1cccc(C(=O)N[C@@H](Cc2ccccc2)C(=O)NCCN2CCc3cc(F)ccc32)c1 = < 1000 nM

Item C[C@@H](CNc1cc(F)ccc1Cl)NC(=O)[C@H](CC1CCCCC1)NC(=O)c1ccc(-c2cccc(F)c2)o1 ; assay system Cathepsin S (Homo sapiens, UniProt P25774); Ki reported as < 1000 nM

Kindly note: Cathepsin S (Homo sapiens, UniProt P25774), COc1ccc(N[C@H]2CCCC[C@H]2NC(=O)[C@H](CC(C)C)NC(=O)c2cccc(C)c2)cc1 (mixture of isomers) , Ki value reported: < 1000 nM

The molecule C[C@@H](CN1CCc2cc(F)ccc21)NC(=O)[C@H](CC1CCCCC1)NS(=O)(=O)c1ccccc1 on Cathepsin S (Homo sapiens, UniProt P25774): Ki was < 100 nM

// assay Cathepsin S (Homo sapiens, UniProt P25774), entry O=C(NCCN1CCc2cc(F)ccc21)[C@H](CC1CCCCC1)NS(=O)(=O)c1cc(Cl)c(Cl)s1 , Ki value = < 1000 nM

Kindly note: Cathepsin S (Homo sapiens, UniProt P25774), Cc1noc(C)c1S(=O)(=O)N[C@@H](CC1CCCCC1)C(=O)N[C@@H](C)CN1CCc2cc(F)ccc21 , Ki value reported: < 100 nM

With Cathepsin S (Homo sapiens, UniProt P25774) as the test system, C[C@@H](CNc1ccc(OC(F)(F)F)cc1)NC(=O)[C@H](CC1CCCC1)NC(=O)O[C@H]1CCOC1 showed Ki of < 100 nM

Readout Ki for C[C@@H](CNc1ccc(OC(F)(F)F)cc1)NC(=O)[C@H](CC1CCCCC1)NC(=O)c1cc(-c2ccc(F)cc2)no1 , test system Cathepsin S (Homo sapiens, UniProt P25774), was < 100 nM

Reported Cathepsin S (Homo sapiens, UniProt P25774) Ki for item CC(C(=O)N[C@@H](CC1CCCCC1)C(=O)NCCN1CCc2cc(F)ccc21)c1ccc(F)cc1 (stereo partly shown) was < 1000 nM

C[C@@H](C(=O)N[C@@H](CCC1CCCCC1)C(=O)NCCN1CCc2cc(F)ccc21)c1ccccc1 tested on Cathepsin S (Homo sapiens, UniProt P25774) gave Ki: < 100 nM

The reported Ki value, Cathepsin S (Homo sapiens, UniProt P25774), for Cc1cc(C(=O)N[C@@H](CC2CCCCC2)C(=O)NCCN2CCc3cc(F)ccc32)c(C(F)(F)F)o1 reads < 100 nM

Bench note, Cathepsin S (Homo sapiens, UniProt P25774): entry O=C(NCCN1CCc2cc(F)ccc21)[C@H](CC1CCCCC1)NS(=O)(=O)c1ccc(S(=O)(=O)c2ccccc2)s1 , its Ki = < 1000 nM

Bench note, Cathepsin S (Homo sapiens, UniProt P25774): entry CS(=O)(=O)N1CCC(C(=O)N[C@@H](CC2CCCCC2)C(=O)NCCN2CCc3cc(F)ccc32)CC1 , its Ki = < 1000 nM

Field Ki (system: Cathepsin S (Homo sapiens, UniProt P25774)) for entry Cc1cccc(C(=O)N[C@@H](CC(C)(C)C)C(=O)NCCN2CCc3cc(F)ccc32)c1 = < 100 nM

The molecule C[C@@H](CNc1ccc(OC(F)(F)F)cc1)NC(=O)[C@H](CC1CCCCC1)NC(=O)O[C@@H]1CCOC1 , tested on Cathepsin S (Homo sapiens, UniProt P25774), showed Ki of < 100 nM

Entry C[C@@H](CNc1ccc2c(c1)C(=O)OC2)NC(=O)[C@H](CC1CCCCC1)NC(=O)c1ccc(-c2cccc(F)c2)o1 , tested on Cathepsin S (Homo sapiens, UniProt P25774), has a reported Ki of < 100 nM

Entry C[C@@H](CNc1cccc(C(=O)N(C)C)c1)NC(=O)[C@H](CC1CCCCC1)NC(=O)c1ccc(-c2cccc(F)c2)o1 , tested on Cathepsin S (Homo sapiens, UniProt P25774), has a reported Ki of < 100 nM

Note to self: Ki of COc1cccc(C(=O)N[C@@H](CCC2CCCCC2)C(=O)N[C@@H](CCCCN)CN2CCc3cc(F)ccc32)c1 with Cathepsin S (Homo sapiens, UniProt P25774) was < 100 nM

Ki on Cathepsin S (Homo sapiens, UniProt P25774) for O=C(N[C@@H](CC1CCCCC1)C(=O)NCCN1CCc2cc(F)ccc21)C1CC1 is < 100 nM

So the reported Ki for O=C(N[C@@H](CC1CCCCC1)C(=O)NCCN1CCc2cc(F)ccc21)c1csc(-c2ccccc2)n1 , on Cathepsin S (Homo sapiens, UniProt P25774), turned out to be < 100 nM

Item Cc1ccccc1C(C)C(=O)N[C@@H](CC1CCCCC1)C(=O)NCCN1CCc2cc(F)ccc21 (stereo partly shown) was tested on Cathepsin S (Homo sapiens, UniProt P25774); the reported Ki is < 100 nM

Tested system Cathepsin S (Homo sapiens, UniProt P25774); Ki recorded for C[C@@H](CNc1ccc(OC(F)(F)F)cc1)NC(=O)[C@H](CC(C)(C)C)NC(=O)C1CCOCC1 was < 1000 nM

The reported Ki value, Cathepsin S (Homo sapiens, UniProt P25774), for C[C@@H](CNc1ccc(OC(F)(F)F)cc1)NC(=O)[C@H](CC1CCCCC1)NC(=O)O[C@@H]1CCNC1 reads < 10000 nM

Summary: COc1ccc(Oc2ccc(S(=O)(=O)N[C@@H](CC3CCCCC3)C(=O)NCCN3CCc4cc(F)ccc43)cc2)cc1 , Cathepsin S (Homo sapiens, UniProt P25774), Ki = < 100 nM

Measured Ki for this entry O=C(NCCN1CCc2cc(F)ccc21)[C@H](CC1CCCCC1)NS(=O)(=O)c1ccc(Oc2ccccc2)cc1 on Cathepsin S (Homo sapiens, UniProt P25774): < 100 nM

Readout Ki for COc1cc(C)c(NC[C@H](C)NC(=O)[C@H](CC2CCCCC2)NC(=O)c2ccc(-c3cccc(F)c3)o2)c(C)c1 , test system Cathepsin S (Homo sapiens, UniProt P25774), was < 100 nM

The measured Ki that Cc1nnc(-c2cccc(S(=O)(=O)N[C@@H](CC3CCCCC3)C(=O)NCCN3CCc4cc(F)ccc43)c2)o1 showed for Cathepsin S (Homo sapiens, UniProt P25774) is < 100 nM

Measured on Cathepsin S (Homo sapiens, UniProt P25774), Cc1cccc(S(=O)(=O)N[C@@H](CC2CCCCC2)C(=O)NCCN2CCc3cc(F)ccc32)c1 has a documented Ki of < 100 nM

###

Give Ki for every item shown.
Tested On: UniProt P25774
Protocol Description: Cathepsin S inhibition, fluorogenic peptide substrate kinetic assay
Type: biochemical
Conditions: Table II; Cathepsin S inhibition constant, pH5.5; read-out: Ki Cat. S

The measured Ki associated with COc1cccc(C(=O)N[C@@H](CC2CCCCC2)C(=O)N[C@@H](CN2CCOCC2)CN2CCc3cc(F)ccc32)c1 reads < 100 nM

Ki reading for O=C(N[C@@H](CC1CCCCC1)C(=O)NCCN1CCc2cc(F)ccc21)C1CC(=O)N(Cc2cccs2)C1 (stereo partly shown) : < 100 nM

Lookup result for Cc1ccc(C(C)C(=O)N[C@@H](CC2CCCCC2)C(=O)NCCN2CCc3cc(F)ccc32)cc1 (stereo partly shown) ; measured Ki: < 100 nM

What the record says about C[C@@H](CNc1cccc(Cl)c1)NC(=O)[C@H](CC1CCCCC1)NC(=O)c1ccc(-c2cccc(F)c2)o1 : Ki is < 100 nM
